# Assay explanation: log P by HPLC on reversed-phase column (EEC Directive 79/831 Annex V.A8)
# Type: physicochemical
# Experimental setup: reversed-phase HPLC column (C18); pH 7.8, 0.001 molar aqueous ammonium bicarbonate/acetonitrile, 55° C.; read-out: log P (neutral)
# Protocol: The log P values are measured according to EEC Directive 79/831 Annex V.A8 by HPLC (high-performance liquid chromatography) on a reversed-phase column (C 18). Temperature: 55° C. […] Calibration is carried out using unbranched alkan-2-ones (having 3 to 16 carbon atoms) with known Log P values (Log P values determined on the basis of the retention times by linear interpolation between two successive alkanones).
Consider the following compounds and their measured chromatographic logP readings.
Observation type: chromatographic logP

[[record]]
compound = "CCS(=O)(=O)c1c(C(=O)OC)nc2cc(C(F)(F)F)ccn12"
test_result = 2.15

[[record]]
compound = "FC(F)(F)c1cn2nc(-c3nc4ccccc4cc3Br)nc2cn1"
test_result = 2.98

[[record]]
compound = "CCS(=O)(=O)c1c(C#N)nc2cc(C(F)(F)F)ccn12"
test_result = 2.28

[[record]]
compound = "CCS(=O)(=O)c1c(-c2nc3ccc(C(F)(F)F)cn3n2)nc2cc(C(F)(F)F)ccn12 [Example I-01]"
test_result = 2.41

[[record]]
compound = "CCSc1c(C(=O)OC)nc2cc(C(F)(F)F)ccn12"
test_result = 2.56

[[record]]
compound = "CCS(=O)(=O)c1cc2ccccc2nc1-c1nc2cnc(C(F)(F)F)cn2n1 [Example I-02]"
test_result = 2.44

[[record]]
compound = "CCS(=O)(=O)c1c(C(N)=O)nc2cc(C(F)(F)F)ccn12"
test_result = 1.57

[[record]]
compound = "N=C(Nc1cnc(C(F)(F)F)cn1)c1nc2ccccc2cc1Br"
test_result = 3.01


====

# Test system: Phaedon cochleariae
# Assay explanation: Phaedon cochleariae spray test
# Format: in vivo
# Experimental setup: 168 h, application rate 20 g/ha, after 7 days, read-out: efficacy
Consider the following compounds and their measured pest or weed control at 20 g/ha readings.
Observation type: pest or weed control at 20 g/ha (%)

[[record]]
smiles_code = "CCS(=O)(=O)c1c(-c2nc3ccc(C(F)(F)F)cn3n2)nc2cc(S(=O)(=O)C3CC3)ccn12"
assayed_system = "Phaedon cochleariae"
test_result = 83

[[record]]
smiles_code = "CCS(=O)(=O)c1c(-c2nc3ccc(C(F)(F)F)cn3n2)nc2cc(OCC(F)(F)F)ccn12"
assayed_system = "Phaedon cochleariae"
test_result = 100

[[record]]
smiles_code = "CCS(=O)(=O)c1c(-c2nc3ccc(C(F)(F)F)cn3n2)nc2cc(C(F)(F)F)ccn12"
assayed_system = "Phaedon cochleariae"
test_result = 100

[[record]]
smiles_code = "CCS(=O)(=O)c1c(-c2nc3ccc(C(F)(F)F)cn3n2)nc2cc(C3CC3)ccn12"
assayed_system = "Phaedon cochleariae"
test_result = 83

[[record]]
smiles_code = "CCS(=O)(=O)c1c(-c2nc3ccc(C(F)(F)F)cn3n2)nc2cc(I)ccn12"
assayed_system = "Phaedon cochleariae"
test_result = 100

[[record]]
smiles_code = "CCS(=O)(=O)c1cc2ccccc2nc1-c1nc2cc(C(F)(F)F)ncn2n1"
assayed_system = "Phaedon cochleariae"
test_result = 100


====

Consider the following compounds and their measured efficacy (kill) readings.
# Tested on: Ctenocephalides felis
# Assay explanation: Ctenocephalides felis oral test
# Assay type: in vivo
# Experimental setup: application rate 100 ppm in citrated cattle blood, after 2 days
Observation type: efficacy (kill) (%)

[[record]]
compound = "CCS(=O)(=O)c1c(-c2nc3ccc(C(F)(F)F)cn3n2)nc2cc(NC(C)=O)ccn12 [Example I-07]"
assayed_system = "Ctenocephalides felis"
test_result = 100

[[record]]
compound = "CCS(=O)(=O)c1cc2ccccc2nc1-c1nc2cc(C(F)(F)F)ncn2n1 [Example I-05]"
assayed_system = "Ctenocephalides felis"
test_result = 95

[[record]]
compound = "CCS(=O)(=O)c1c(-c2nc3ccc(C(F)(F)F)cn3n2)nc2cc(NC(=O)C3CC3)ccn12 [Example I-09]"
assayed_system = "Ctenocephalides felis"
test_result = 95

[[record]]
compound = "CCS(=O)(=O)c1c(-c2nc3ccc(C(F)(F)F)cn3n2)nc2cc(NC(=O)OC)ccn12 [Example I-08]"
assayed_system = "Ctenocephalides felis"
test_result = 90

[[record]]
compound = "CCS(=O)(=O)c1c(-c2nc3ccc(C(F)(F)F)cn3n2)nc2cc(C(F)(F)F)ccn12 [Example I-01]"
assayed_system = "Ctenocephalides felis"
test_result = 100

